meta.source: patent US7101878B1

# study-target: rat GnRH receptor (Rattus norvegicus)
# Sequence (P30969 whole entry): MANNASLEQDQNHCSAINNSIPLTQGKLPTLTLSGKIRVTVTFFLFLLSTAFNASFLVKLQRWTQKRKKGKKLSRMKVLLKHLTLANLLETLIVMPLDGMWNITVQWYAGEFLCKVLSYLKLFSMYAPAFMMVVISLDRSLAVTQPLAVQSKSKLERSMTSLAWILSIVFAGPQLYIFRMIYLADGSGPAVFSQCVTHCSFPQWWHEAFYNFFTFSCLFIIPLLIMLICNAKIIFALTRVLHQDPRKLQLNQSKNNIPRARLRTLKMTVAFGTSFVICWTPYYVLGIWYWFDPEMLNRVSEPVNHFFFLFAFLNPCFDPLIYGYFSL
# experimental-protocol: Radioligand binding, 125I-GnRH-A, rat pituitary membranes
# Design: membranes were prepared from rat pituitary; from tissue; host or cells: rat pituitary
# condition-context: means ± SE of at least three experiments performed in duplicate; read-out: Rat IC50
pIC50: −log10 of the molar value. Where a SMILES comes first, the peptide text is derived from it. [ ]: non-standard residue; d: D form. The star is where a group is joined. dPhe(4-Cl) = N[C@H](Cc1ccc(Cl)cc1)C(=O)O; d2Nal = N[C@H](Cc1ccc2ccccc2c1)C(=O)O; Lys(iPr) = CC(C)NCCCC[C@H](N)C(=O)O; d3Pal = N[C@H](Cc1cccnc1)C(=O)O; Nicotinoyl = O=C(c1cccnc1)*
Tag: MET if measured pIC50 is not below 7, NOT MET if it is.

compound	category
Cc1ccc(CNC(=O)c2ccc(Cc3cc4c(cc3C)C(C)(C)CCC4(C)C)o2)cc1C	MET
Cc1cc2c(cc1Cc1ccc(C(=O)NCc3cccc(C)c3C)o1)C(C)(C)CCC2(C)C	MET
Cc1cc2c(cc1Cc1ccc(C(=O)NCC3CCC(C#N)CC3)o1)C(C)(C)CCC2(C)C (stereo not drawn)	NOT MET
Cc1ccc(CNC(=O)c2ccc(Cc3cc4c(cc3C)C(C)(C)CCC4(C)C)o2)cc1	MET
CC(=O)N[C@H](Cc1ccc2ccccc2c1)C(=O)N[C@H](Cc1ccc(Cl)cc1)C(=O)N[C@H](Cc1cccnc1)C(=O)N[C@@H](CO)C(=O)N[C@@H](CCCCNC(=O)c1cccnc1)C(=O)N[C@H](CCCCNC(=O)c1cccnc1)C(=O)N[C@@H](CC(C)C)C(=O)N[C@@H](CCCCNC(C)C)C(=O)N1CCC[C@H]1C(=O)N[C@H](C)C(N)=O [Antide, reference compound] (Ac-[d2Nal][dPhe(4-Cl)][d3Pal]SK(Nicotinoyl)[dK](Nicotinoyl)L[Lys(iPr)]P[dA]-NH2)	MET
